# experiment notes: qHTS assay to identify small molecule antagonists of the retinoid-related orphan receptor gamma (ROR-gamma) signaling pathway - cell viability counter screen (AID 1159520); note: nearly all actives have a fitted effect of over 50% in size
# measurement parameters: Tet-on RORgamma CHO cells viability, ATP luminescence, 16 h; series mostly up to 92.4 µM
Records with an inconclusive call do not appear. Activity calls are given as the source filed them. Calls come from the whole dose curve; as a rule, active = well fitted cell-killing curve with a large enough effect in the repeat runs; inconclusive = weak or mixed curves, or effect the other way; inactive = no such curve, though single readings can be large or run the other way.
Choose the fitting class; nothing outside Yes for active, No for inactive is accepted.

[Q] Recorded test call requested for "Cc1onc(-c2c(Cl)cccc2Cl)c1C(=O)N[C@@H]1C(=O)N2[C@@H]1SC(C)(C)[C@@H]2C(=O)O"
[A] No

[Q] Give the logged outcome of this assay for the following molecule: "N=C1C=CC(=C(c2ccc(N)cc2)c2ccc(N)cc2)C=C1"
[A] Yes

[Q] Each molecule tested received a call. Report the one for "O=C(O)c1cc(O)c2c(c1)C(=O)c1cccc(O)c1C2=O" .
[A] No

----------
# experiment notes: Human pregnane X receptor (PXR) small molecule agonists, qHTS cell viability counter screen (AID 1346977); note: nearly all actives have a fitted effect of over 50% in size
# measurement parameters: PXR-Luc HepG2 viability, CellTiter-Fluor, 24 h; series mostly up to 92.4 µM
Records with an inconclusive call do not appear. Calls of active or inactive are those of the source. Calls come from the whole dose curve; as a rule, active = well fitted cell-killing curve with a large enough effect in the repeat runs; inconclusive = weak or mixed curves, or effect the other way; inactive = flat fitted curve, though single readings scatter.
Outcome (select one): active, inactive

[Q] Each compound tested received a call. Report the one for "O=[N+]([O-])c1ccccc1Nc1ccccc1" .
[A] inactive

[Q] Can you look up the reported call for "O=c1c(-c2ccccc2)c1-c1ccccc1" for me?
[A] active

[Q] Hi team, can someone confirm the assay call for "CCCCCCCC/C=C\CCCCCCCCOCCO" ?
[A] active

[Q] Look up the recorded call for "O=C(O)c1cc(O)c2c(c1)C(=O)c1cccc(O)c1C2=O" in this test.
[A] active

----------
# experiment notes: A CellTox Green Cytotoxicity Assay to monitor cytotoxicity in HepG2 cells - 32 hour (AID 1224883); note: nearly all actives have a fitted effect of over 50% in size
# measurement parameters: CellTox Green fluorescence; series mostly up to 76.8 µM
Inconclusive results are not listed. Active and inactive are the calls of the source. The call rests on the fitted dose curve; in most records, active means well fitted activation curve with a large enough effect in the repeat runs; inconclusive means weak or mixed curves; inactive means flat fitted curve, though single readings scatter.

entry smiles	outcome
O=[N+]([O-])c1ccccc1Nc1ccccc1	inactive
C1CCCC1	inactive
C/C(=C(/OCCOc1ccc(Cl)cc1)c1ccc(Cl)cc1Cl)n1ccnc1	inactive

----------
# experiment notes: A CellTox Green Cytotoxicity Assay to monitor cytotoxicity in HEK293 cells - 24 hour (AID 1224875); note: nearly all actives have a fitted effect of over 45% in size
# measurement parameters: CellTox Green fluorescence; series mostly up to 76.8 µM
Inconclusive results are not listed. Active and inactive are the calls of the source. The call rests on the fitted dose curve; in most records, active means well fitted activation curve with a large enough effect in the repeat runs; inconclusive means weak or mixed curves; inactive means flat fitted curve, though single readings scatter.
Please state which outcome applies, choosing from active, inactive

[Q] Returns: the outcome recorded for "O=[N+]([O-])c1ccccc1Nc1ccccc1" in this assay.
[A] inactive

[Q] Recorded call for "O=C1C=CC(=O)N1" ?
[A] active

[Q] // param item: "COc1cc(-c2nc(NC(=O)c3cc4cc(C)cc(C)c4n3CC(=O)O)sc2CCC2CCCCC2)c(OC)cc1Cl" ; yields the recorded call
[A] inactive

----------
# experiment notes: qHTS assay to identify small molecule antagonists of the retinoid acid receptor (RAR) signaling pathway - cell viability counter screen (AID 1159551); note: nearly all actives have a fitted effect of over 35% in size
# measurement parameters: C3RL4 cells viability, ATP luminescence (CellTiter-Glo), 6 h; series mostly up to 92.4 µM
Records with an inconclusive call do not appear. The source made the active and inactive calls. The call rests on the fitted dose curve; in most records, active means well fitted cell-killing curve with a large enough effect in the repeat runs; inconclusive means weak or mixed curves, or effect the other way; inactive means flat fitted curve, though single readings scatter.
Use one of these outcomes when replying: YES (active), NO (inactive)

[Q] // outcome(item) with item = "COc1cc(/C=C/C(=O)O[C@H]2CC[C@]34C[C@]35CC[C@]3(C)[C@@H]([C@H](C)CCC=C(C)C)CC[C@@]3(C)[C@@H]5CC[C@H]4C2(C)C)ccc1O"
[A] NO

[Q] Which result was noted for this compound in the test: "CCCCCCCC/C=C/CCCCCCCC1=NCCN1CCO"
[A] YES

[Q] Hi, sorry to bother you, what did the test record for "O=C1CCCc2c1cc1ccc3cccc4ccc2c1c34" ?
[A] NO

[Q] Record request — test call for "C[C@@H]1C[C@H]2[C@@H]3CCC4=CC(=O)C=C[C@]4(C)[C@@]3(Cl)[C@@H](O)C[C@]2(C)[C@@]1(OC(=O)c1ccco1)C(=O)CCl"
[A] NO

[Q] Please indicate how the test categorized "CN(C/C=C/C#CC(C)(C)C)Cc1cccc2ccccc12" .
[A] NO

[Q] # fetch the recorded call for "CC(=O)S[C@@H]1CC2=CC(=O)CC[C@]2(C)[C@H]2CC[C@@]3(C)[C@@H](CC[C@@]34CCC(=O)O4)[C@H]12" here
[A] NO

[Q] Identify the outcome logged in this assay for the compound shown: COC(=O)C1=C(C)NC(C)=C(C(=O)OCCc2ccc(N3CCN(C(c4ccccc4)c4ccccc4)CC3)cc2)C1c1cccc([N+](=O)[O-])c1 (stereo not drawn)
[A] NO

[Q] Record lookup: outcome of this test for "O=C(O)c1c(Cl)cccc1Cl" ?
[A] NO

Source of measurements: PubChem BioAssay (Tox21)
